experiment: AUC (infinity) in rat at 3 mg/kg, po; format: ADME, organism-based; parameters: route oral, time infinity, dose 3 mg/kg; conditions: in vivo
quantity measured: AUC(0-inf)

[
  {
    "compound string": "CC(C)C[C@](C)(N)COc1ccc(-c2ccnc(C(F)F)c2)nc1C(F)F",
    "quantity measured": "AUC(0-inf)",
    "measurement": "880 ng·h/mL"
  }
]

###

molecular target: Cytochrome P450 3A4 (Homo sapiens, UniProt P08684); assay: Time dependent inhibition of CYP3A4 (unknown origin) using MDZ as substrate measured at 5 mins; assay type: ADME
Sequence (P08684 whole entry): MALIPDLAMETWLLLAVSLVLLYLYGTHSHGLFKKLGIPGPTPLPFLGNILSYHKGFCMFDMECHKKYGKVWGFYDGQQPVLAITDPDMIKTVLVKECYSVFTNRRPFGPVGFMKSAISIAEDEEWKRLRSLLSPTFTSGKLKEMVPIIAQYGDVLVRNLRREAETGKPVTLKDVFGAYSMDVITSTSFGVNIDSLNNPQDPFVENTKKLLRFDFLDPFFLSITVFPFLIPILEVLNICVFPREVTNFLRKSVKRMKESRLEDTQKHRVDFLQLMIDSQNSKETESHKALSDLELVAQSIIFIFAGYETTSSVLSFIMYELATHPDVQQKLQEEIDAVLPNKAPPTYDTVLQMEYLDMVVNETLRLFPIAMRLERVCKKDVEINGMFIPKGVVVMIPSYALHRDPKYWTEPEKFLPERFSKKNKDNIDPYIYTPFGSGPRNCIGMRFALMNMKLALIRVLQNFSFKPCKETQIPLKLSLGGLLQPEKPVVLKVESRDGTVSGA
pIC50: −log10 of the molar value.
quantity measured: pIC50

[
  {
    "compound string": "CC(C)C[C@](C)(N)COc1ccc(-c2ccnc(C(F)F)c2)nc1C(F)F",
    "measurement": "< 4.40"
  }
]

###

assay: Metabolic stability in dog liver microsomes assessed as half life; format: ADME, Canis lupus familiaris, Microsome

[
  {
    "compound string": "CC(C)C[C@](C)(N)COc1ccc(-c2ccnc(C(F)F)c2)nc1C(F)F",
    "half-life": "30 min"
  }
]

###

assay: Metabolic stability in rat liver microsomes assessed as CYP450-mediated metabolism by measuring parent compound remaining at 0.5 uM incubated for 10 mins in presence of NADPH by LC-MS/MS analysis; assay type: ADME; details: read-out: Stability

[
  {
    "compound string": "CC(C)C[C@](C)(N)COc1ccc(-c2ccnc(C(F)F)c2)nc1C(F)F",
    "output unit": "%",
    "remaining at 10 min, 0.5 µM": 92
  },
  {
    "compound string": "CC(C)C[C@](C)(N)COc1ccc(-c2ccnc(C(F)F)c2)cc1C#N",
    "output unit": "%",
    "remaining at 10 min, 0.5 µM": 71
  },
  {
    "compound string": "Cc1cc(-c2ccc(OC[C@@](C)(N)CC(C)C)c(C(F)F)n2)ccn1",
    "output unit": "%",
    "remaining at 10 min, 0.5 µM": 82
  },
  {
    "compound string": "CC(C)C[C@](C)(N)COc1ccc(-c2ccnc(Cl)c2)nc1C(F)F",
    "output unit": "%",
    "remaining at 10 min, 0.5 µM": 87
  },
  {
    "compound string": "Cc1cc(-c2ccc(OC[C@@](C)(N)CC(C)C)c(C)n2)ccn1",
    "output unit": "%",
    "remaining at 10 min, 0.5 µM": 83
  },
  {
    "compound string": "CC(C)C[C@](C)(N)COc1ccc(-c2ccnc(C(F)F)c2)cc1C(F)F",
    "output unit": "%",
    "remaining at 10 min, 0.5 µM": 83
  },
  {
    "compound string": "CC(C)C[C@](C)(N)COc1ncc(-c2ccnc(Cl)c2)cc1C(F)F",
    "output unit": "%",
    "remaining at 10 min, 0.5 µM": 88
  },
  {
    "compound string": "Cc1cc(-c2ccc(OC[C@@](C)(N)CC(C)C)c(C(F)F)c2)ccn1",
    "output unit": "%",
    "remaining at 10 min, 0.5 µM": 81
  },
  {
    "compound string": "Cc1cc(-c2ccc(OC[C@@](C)(N)CC(C)C)c(C(F)(F)F)c2)ccn1",
    "output unit": "%",
    "remaining at 10 min, 0.5 µM": 86
  },
  {
    "compound string": "CC(C)C[C@](C)(N)COc1ccc(-c2ccnc(C(F)F)c2)cc1C(F)(F)F",
    "output unit": "%",
    "remaining at 10 min, 0.5 µM": 92
  },
  {
    "compound string": "Cc1cc(-c2cnc(OC[C@@](C)(N)CC(C)C)c(C(F)F)c2)ccn1",
    "output unit": "%",
    "remaining at 10 min, 0.5 µM": 65
  }
]

Taken from ChEMBL document CHEMBL5046296.
